B1: SPDEF (parent)
chain: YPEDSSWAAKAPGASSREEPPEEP

# Variants of: B1
# TEST: protein stability index of a GFP-peptide fusion (GPS, HEK-293T) (PSI 1-6); higher = more stable;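 further: lentivirally expressed fusions sorted by FACS into six bins by GFP to DsRed ratio, PSI derived from sequencing read proportions per bin multiplied by bin number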
# COND: c terminus: a fixed tail appended
Category scheme (protein stability index): one: < 3; two: ≥ 3 and < 4; three: ≥ 4

| MUTATION ANNOTATION | LABEL VALUE |
| --- | --- |
| W7D | three |

Band of P2F ?
three

Band of A11W ?
two

Band of S6E ?
three

Band of W7A ?
three

Band of P21Y ?
three

Band of W7T ?
three

Band of S5R ?
three
